Tested on: SU-DHL10 CRBN^-/- cells
Assay: Cell proliferation in CRBN^-/- (knock out) cells, 5 days
Type: cell-based
Settings: Homo sapiens, 120 h
pIC50: −log10 of the molar value.
MEASURED_QUANTITY: pIC50

Exercise: Query for SU-DHL10 CRBN^-/- cells: what pIC50 does the record show for O=C1CC[C@H](N2C(=O)c3cccc(NCc4ccc(CN5CC(N6CCOCC6)C5)cc4F)c3C2=O)C(=O)N1 ?
Key: < 5.00

====

Test system: exhausted T cells
Assay: SEB-induced T-cell exhaustion restimulation assay, effector cytokine release (MSD)
Assay type: cell-based
Details: T cell restimulation assay; read-out: EC50 for secreted GM-CSF levels
MEASURED_QUANTITY: pEC50
Just the number, please; pEC50 means minus log10 of the concentration in mol/L.

Exercise: For O=C1CC[C@H](N2C(=O)c3cccc(NCc4ccc(CN5CC(N6CCOCC6)C5)cc4F)c3C2=O)C(=O)N1 , what is its reported pEC50?
Key: 8.22
